# System: MS2 coat protein
# EXPERIMENTAL PROTOCOL: apparent KD of MS2 coat protein; higher = weaker reporter binding
# SETUP CONDITIONS: Eterna round: R107; input ligand: arginine 13.2 mM
Could you label it MET if measured apparent KD of MS2 coat protein is 20 nM or higher, and NOT MET otherwise?

SEQUENCE STRING: UCGUGUAUAUCGGAUACCAGUGAAAUCGAUACAUGAGGAUCACCCAUGUGAGUUGAUGUACACCCUUGGCAGCUGUAUAUAUCUA [snbullin]
LABEL: NOT MET

SEQUENCE STRING: GCUACAUGAGGAUCACCCAUGUGUACUGAAGGAGCGGCGGAAACGCCAGGUAGGUCGCAGUAUGUGGCUCUGGGCACGAGAAAGC [SSAA NP+V+V2 #2]
LABEL: MET

SEQUENCE STRING: CGCUACAUGAGGAUCACCCAUGUUACUCCGCGAGGACCGGUACGGCCGCCACUCGGCAGUUUGCGCCGCCGGAGGCACUCUUCAG [theeternabot_sameState_MS2_Trp_A_32]
LABEL: MET

**Query** Can GGUGUUACGUCGGCCGCCACUAUACUACAUGAGGAUCACCCAUGUCAUCCCUUCAAUUGGUAGCCUAGGACCGGGACAGAAUUCG [theeternabot_exclusion_MS2_Trp_B_8] be said to have apparent KD of MS2 coat protein at or above 20 nM?
**Result** MET

**Query** Can UGUAUGUGAUCUGAUACCAGCCUCAUAGCUUGAGGAUCACCCAAGUGGAGCGGAAACGCUGGCCCUUGGCAGCAGAUCGCAUACU [TheoBS 1 #AlternativeMS2] be said to have apparent KD of MS2 coat protein at or above 20 nM?
**Result** MET

**Query** Can AAUAACAUGAGGAUCACCCAUGUAAAAGAUACCAGAGUGAUGAUCCUCCCUUGGCAGCUUAAACGCUAUUGAUUACAAUAGCGAA [Mat - Same State Theophlline A - Mod of Eli - D2] be said to have apparent KD of MS2 coat protein at or above 20 nM?
**Result** MET

###

# System: MS2 coat protein
# EXPERIMENTAL PROTOCOL: apparent KD of MS2 coat protein; higher = weaker reporter binding
# SETUP CONDITIONS: Eterna round: R107; input ligand: tryptophan 2.4 mM
ATTRIBUTE MEASURED: apparent KD of MS2 coat protein (nM)
Numbers only, in nM.

Some solved entries appear below for comparison.
SEQUENCE STRING: UUCAAAGGGAACGGUGCUGGUAACAGAGAUACCAGAGUAAUAAUACUCCCUUGGCAGCUCAUAACAUGAGGAUCACCCAUGUAAU [Exclusion Theophylline A GF21]
apparent KD of MS2 coat protein [nM]: 13.5
--
SEQUENCE STRING: AGACAUGAGGAUCACCCAUGUAGCAUGGAUACCAGAUCCAGAUUUAUCCCUUGGCAGCUGUGGUACAGUGAUGGAUUGCUCCUAG [Exclusion - Theophylline A (Freestyle 8)]
apparent KD of MS2 coat protein [nM]: 61.9
--
SEQUENCE STRING: AAAACACAUGAGGAUCACCCAUGUCGUGAUACCAGUCAACAUGAGGACCCUUGGCAGCAUAAAAUGGGUAACAUGAGGAUCACCC [AstrosEXyTheA#5]
apparent KD of MS2 coat protein [nM]: 90.9
--
SEQUENCE STRING: AACAUGAGGAUCACCCAUGUCUGAACUGAAGGAGCGCUAAAUAAGGCAGGUAGGUCGCGGAAUUUUGUGUGCAUAUGCAUAUGGG [9.I]
apparent KD of MS2 coat protein [nM]: 23.8
--
SEQUENCE STRING: GCUAGUGGCAGAAGGAGCGGCAUACAUGCAAGUGACAUGAGGAUCACCCAUGUAAGGGAAUGCCAGGUAGGUCGCUGCCACUAGC [EAB NP+V+V2 #2 +-Same Structure]
apparent KD of MS2 coat protein [nM]: 64.2

// switching to the query sequence
Value of apparent KD of MS2 coat protein reported for the sequence UGUCGAAACUGAAGGAGCGAGAUGACAAACAUGAGGAUCACCCAUGUUAUGGGUUGUUAAUCUCAGGUAGGUCGCAGUGACAAAA [Same State Arginine B GF 16] is 103
